Entry source: ChEMBL document CHEMBL2321812

methodDescription: Mean residence time (0 to infinity) in female ICR mouse at 5 mg/kg, po
Type: ADME, organism-based
Set-up: dose 5 mg/kg, route oral
cond: in vivo

structureNotation	MRT inf / h
CS(=O)(=O)c1ccc(-c2nnc(/C=C/c3nnc(-c4ccc(C#N)cc4)o3)n2-c2ccccc2Cl)nc1	5.1

====

methodDescription: AUC (0 to t) in male ICR mouse at 5 mg/kg, ip
Format: ADME, organism-based
Set-up: dose 5 mg/kg, route intraperitoneal
cond: plasma

structureNotation	AUC(0-t) [ng·h/mL]
CS(=O)(=O)c1ccc(-c2nnc(/C=C/c3nnc(-c4ccc(C#N)cc4)o3)n2-c2ccccc2Cl)nc1	11200
